- System Tested: Wild type EGFR (Homo sapiens)
- Construct: purchased Invitrogen PV3872
- Protocol Text: Kinase activity test (FRET), wild type EGFR
- Assay type: biochemical
- Experimental Context: wild type EGFR; read-out: Inhibitory activity of EGFR on kinase (IC50, nM) WT
Kindly apply the following: yes (1) if IC50 is less than 90 nM, no (0) in every other case.

Prompt: Decide: IC50 of C=CC(=O)N1CC[C@H](n2c(=O)c(C3CCCCC3)nc3cnc(Nc4ccc(N5CCN(C)CC5)cc4OC)nc32)C1 strictly below 90 nM?
Completion: yes (1)

Prompt: Now consider C=CC(=O)Nc1cccc(-n2c(=O)cnc3cnc(Nc4ccc(CCN5CCN(C)CC5)cc4)nc32)c1 and answer again.
Completion: yes (1)

Prompt: Now consider C=CC(=O)Nc1cccc(-n2c(=O)cnc3cnc(Nc4ccc(N5CCN(C)CC5)cc4OCOC)nc32)c1 and answer again.
Completion: yes (1)

Prompt: Now consider C=CC(=O)Nc1cccc(-n2c(=O)c(-c3ccccc3)nc3cnc(Nc4ccc(N5CCN(C)CC5)c(C)c4)nc32)c1 and answer again.
Completion: yes (1)

Prompt: Now consider C=CC(=O)Nc1cccc(-n2c(=O)c(C(C)C)nc3cnc(Nc4cc(C)c(N5CCN(C)CC5)cc4OC)nc32)c1 and answer again.
Completion: no (0)

Prompt: Now consider C=CC(=O)Nc1cccc(-n2c(=O)cnc3cnc(Nc4ccc(N5CCN(C)CC5)c(C)c4)nc32)c1 and answer again.
Completion: yes (1)

Prompt: Now consider C=CC(=O)Nc1cccc(-n2c(=O)c(C(C)C)nc3cnc(Nc4ccc(N5CCN(C)CC5)cc4)nc32)c1 and answer again.
Completion: yes (1)

Prompt: Now consider C=CC(=O)N1CC[C@H](n2c(=O)c(-c3ccccc3)nc3cnc(Nc4ccc(N(C)CCN(C)C)c(C)c4)nc32)C1 and answer again.
Completion: no (0)

Prompt: Now consider C=CC(=O)Nc1cccc(-n2c(=O)c(-c3ccccc3)nc3cnc(Nc4ccc(N(C)CCN(C)C)cc4OC)nc32)c1 and answer again.
Completion: yes (1)

Prompt: Now consider C=CC(=O)N1CC[C@H](n2c(=O)cnc3cnc(Nc4ccc(N5CCN(C)CC5)cc4OC)nc32)C1 and answer again.
Completion: no (0)

Prompt: Now consider C=CC(=O)Nc1cccc(-n2c(=O)cnc3cnc(Nc4ccc(N5CCC(N(C)C)CC5)cc4OC)nc32)c1 and answer again.
Completion: yes (1)

Prompt: Now consider C=CC(=O)Nc1cccc(-n2c(=O)c(-c3cc(F)cc(F)c3)nc3cnc(Nc4ccc(N5CCN(C)CC5)cc4OC)nc32)c1 and answer again.
Completion: yes (1)

Prompt: Now consider C=CC(=O)N1CC[C@H](n2c(=O)cnc3cnc(Nc4ccc(N5CCN(C)CC5)c(C)c4)nc32)C1 and answer again.
Completion: yes (1)

Prompt: Now consider C=CC(=O)Nc1cccc(-n2c(=O)cnc3cnc(Nc4ccc(N5CCN(C(C)=O)CC5)cc4OC)nc32)c1 and answer again.
Completion: yes (1)

Prompt: Now consider C=CC(=O)N1CCC(n2c(=O)cnc3cnc(Nc4ccc(N5CCN(C)CC5)cc4OC)nc32)CC1 and answer again.
Completion: no (0)

Prompt: Now consider C=CC(=O)Nc1cccc(-n2c(=O)cnc3cnc(Nc4ccc(N5CCN(C)CC5)c(OC)c4)nc32)c1 and answer again.
Completion: yes (1)

Prompt: Now consider C=CC(=O)Nc1cccc(-n2c(=O)c(-c3ccccc3)nc3cnc(Nc4ccc(N5CCC(N6CCN(C)CC6)CC5)cc4OC)nc32)c1 and answer again.
Completion: no (0)

Prompt: Now consider C=CC(=O)N1CCC[C@@H](n2c(=O)c(C3CCCCC3)nc3cnc(Nc4ccc(N5CCN(C)CC5)cc4OC)nc32)C1 and answer again.
Completion: no (0)

Prompt: Now consider COc1cc(N2CCN(C)CC2)ccc1Nc1ncc2nc(-c3ccccc3)c(=O)n([C@H]3CCN(C(=O)/C=C/CN(C)C)C3)c2n1 and answer again.
Completion: no (0)

Prompt: Now consider C=CC(=O)N1CCC[C@@H](Cn2c(=O)c(C(C)C)nc3cnc(Nc4ccc(N5CCN(C)CC5)cc4OC)nc32)C1 and answer again.
Completion: no (0)

Prompt: Now consider C=CC(=O)N1CC[C@H](n2c(=O)c(-c3ccccc3)nc3cnc(Nc4ccc(N5CCN(C)CC5)cc4OC)nc32)C1 and answer again.
Completion: yes (1)

Prompt: Now consider C=CC(=O)N1CC[C@H](n2c(=O)c(-c3ccccc3)nc3cnc(Nc4ccc(N5CCN(C)CC5)c(C)c4)nc32)C1 and answer again.
Completion: yes (1)

---

- System Tested: Wild type EGFR (Homo sapiens, UniProt P00533)
- Construct: purchased Invitrogen PV3872
- Sequence (P00533 25-1210): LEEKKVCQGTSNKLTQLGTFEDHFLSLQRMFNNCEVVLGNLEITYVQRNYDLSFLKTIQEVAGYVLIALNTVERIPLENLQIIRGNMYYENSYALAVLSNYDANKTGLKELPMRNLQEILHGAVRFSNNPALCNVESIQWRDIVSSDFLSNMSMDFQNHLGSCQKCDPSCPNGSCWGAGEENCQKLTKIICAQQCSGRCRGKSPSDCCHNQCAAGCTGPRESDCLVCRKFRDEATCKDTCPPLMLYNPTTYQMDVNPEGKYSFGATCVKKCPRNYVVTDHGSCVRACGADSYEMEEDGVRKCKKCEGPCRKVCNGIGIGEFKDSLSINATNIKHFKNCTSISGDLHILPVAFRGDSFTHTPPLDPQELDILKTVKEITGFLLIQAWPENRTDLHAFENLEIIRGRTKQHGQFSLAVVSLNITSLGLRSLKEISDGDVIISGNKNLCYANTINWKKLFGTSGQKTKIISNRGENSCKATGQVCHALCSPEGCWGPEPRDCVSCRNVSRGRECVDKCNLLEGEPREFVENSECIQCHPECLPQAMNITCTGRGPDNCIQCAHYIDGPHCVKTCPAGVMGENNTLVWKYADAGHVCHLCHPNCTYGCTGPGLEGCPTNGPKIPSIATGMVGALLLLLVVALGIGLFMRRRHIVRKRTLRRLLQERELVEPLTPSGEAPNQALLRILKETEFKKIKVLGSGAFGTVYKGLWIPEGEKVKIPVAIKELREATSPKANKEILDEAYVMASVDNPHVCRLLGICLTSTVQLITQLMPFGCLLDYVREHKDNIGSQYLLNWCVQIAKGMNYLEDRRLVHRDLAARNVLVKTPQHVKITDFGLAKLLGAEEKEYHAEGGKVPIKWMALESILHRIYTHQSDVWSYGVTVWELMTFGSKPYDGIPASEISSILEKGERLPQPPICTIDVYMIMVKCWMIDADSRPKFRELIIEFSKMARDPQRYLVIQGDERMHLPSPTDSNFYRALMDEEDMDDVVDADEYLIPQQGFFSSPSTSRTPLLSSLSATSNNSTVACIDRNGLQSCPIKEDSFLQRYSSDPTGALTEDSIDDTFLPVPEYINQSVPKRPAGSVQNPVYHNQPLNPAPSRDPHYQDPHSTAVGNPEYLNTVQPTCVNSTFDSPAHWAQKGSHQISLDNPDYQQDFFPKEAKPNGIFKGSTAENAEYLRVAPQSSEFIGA
- Protocol Text: Kinase activity test (FRET), wild type EGFR
- Type: biochemical
- Experimental Context: wild type EGFR; read-out: Inhibitory activity of EGFR on kinase (IC50) WT
Readout Kind: IC50

Prompt: What does the record list as IC50 for C=CC(=O)N1CC[C@@H](n2c(=O)cnc3cnc(Nc4ccc(N5CCN(C)CC5)cc4OC)nc32)C1 ?
Completion: > 10 µM

Prompt: Now consider C=CC(=O)N1CCC[C@H](n2c(=O)cnc3cnc(Nc4ccc(N5CCN(C)CC5)cc4OC)nc32)C1 and answer again.
Completion: > 10 µM

---

- Protocol Text: Determination of solubility in water (PBS 20 mM, pH 6.8)
- Assay type: physicochemical
- Experimental Context: PBS buffer, aqueous buffer, thermodynamic from solid; pH 6.8, 20 mM PBS; read-out: Solubility (pH 6.8, g/mL)
Readout Kind: solubility

Prompt: What does the record list as solubility for C=CC(=O)Nc1cccc(-n2c(=O)c(-c3ccccc3)nc3cnc(Nc4ccc(N5CCN(C)CC5)c(OC)c4)nc32)c1 ?
Completion: < 10 µg/mL

Prompt: Now consider C=CC(=O)Nc1cccc(-n2c(=O)c(-c3ccc(F)c(F)c3)nc3cnc(Nc4ccc(N5CCN(C)CC5)cc4OC)nc32)c1 and answer again.
Completion: < 10 µg/mL

Prompt: Now consider C=CC(=O)Nc1cccc(-n2c(=O)c(C(F)(F)F)nc3cnc(Nc4ccc(N5CCN(C)CC5)c(OC)c4)nc32)c1 and answer again.
Completion: 24.5 µg/mL

Prompt: Now consider C=CC(=O)Nc1cccc(-n2c(=O)c(-c3cc(F)cc(F)c3)nc3cnc(Nc4ccc(N5CCN(C)CC5)cc4OC)nc32)c1 and answer again.
Completion: < 10 µg/mL

Prompt: Now consider C=CC(=O)Nc1cccc(-n2c(=O)c(-c3ccccc3)nc3cnc(Nc4ccc(N5CCN(C)CC5)c(C)c4)nc32)c1 and answer again.
Completion: < 10 µg/mL

Prompt: Now consider C=CC(=O)Nc1cccc(-n2c(=O)cnc3cnc(Nc4ccc(N5CCN(C)CC5)c(C)c4)nc32)c1 and answer again.
Completion: 122 µg/mL

Prompt: Now consider C=CC(=O)Nc1cccc(-n2c(=O)c(-c3ccc(F)cc3)nc3cnc(Nc4ccc(N5CCN(C)CC5)cc4OC)nc32)c1 and answer again.
Completion: < 10 µg/mL

---

- Protocol Text: Determination of solubility in water (PBS 20 mM, pH 6.8)
- Format: physicochemical
- Experimental Context: PBS buffer, aqueous buffer, thermodynamic from solid; pH 6.8, 20 mM PBS; read-out: Solubility (pH 6.8, g/mL)
Field: solubility. Provide a value for each of the compounds that follow.
Number in µg/mL, nothing else.

Prompt: What does the record list as solubility for C=CC(=O)Nc1cccc(-n2c(=O)cnc3cnc(Nc4ccc(N5CCN(CCO)CC5)cc4OC)nc32)c1 ?
Completion: 48.6

Prompt: Now consider C=CC(=O)N1CC[C@@H](n2c(=O)cnc3cnc(Nc4ccc(N5CCN(C)CC5)cc4OC)nc32)C1 and answer again.
Completion: 11100

Prompt: Now consider C=CC(=O)N1CCC[C@@H](n2c(=O)c(C3CCCCC3)nc3cnc(Nc4ccc(N5CCN(C)CC5)cc4OC)nc32)C1 and answer again.
Completion: 43.2

Prompt: Now consider C=CC(=O)N1CCC[C@@H](Cn2c(=O)c(C(C)C)nc3cnc(Nc4ccc(N5CCN(C)CC5)cc4OC)nc32)C1 and answer again.
Completion: 72.2

Prompt: Now consider C=CC(=O)Nc1cccc(-n2c(=O)c(C(C)C)nc3cnc(Nc4ccc(N5CCN(C)CC5)cc4)nc32)c1 and answer again.
Completion: 8.9

Prompt: Now consider C=CC(=O)Nc1cccc(-n2c(=O)c(C(C)C)nc3cnc(Nc4ccc(N(C)CCN(C)C)cc4OC)nc32)c1 and answer again.
Completion: 90.7

Prompt: Now consider C=CC(=O)Nc1cc(Nc2ncc3nc(C(C)C)c(=O)n(C)c3n2)c(OC)cc1N(C)CCN(C)C and answer again.
Completion: 1690

Prompt: Now consider COc1cc(N2CCN(C)CC2)ccc1Nc1ncc2nc(-c3ccccc3)c(=O)n([C@H]3CCN(C(=O)/C=C/CN(C)C)C3)c2n1 and answer again.
Completion: 63.3

Prompt: Now consider C=CC(=O)N1CC[C@H](n2c(=O)c(-c3ccccc3)nc3cnc(Nc4ccc(N5CCN(C)CC5)cc4OC)nc32)C1 and answer again.
Completion: 264

Hello, the source for this data is patent US11306095B2, in case you need it.
